The following sequences are shown together with reported apparent KD of K4 kissing-loop reporter values.
system: K4 kissing-loop RNA reporter; experiment: apparent KD of K4 kissing-loop reporter; higher = weaker reporter binding; conditions: Eterna round: R107; input ligand: theophylline 20 uM
Write the value in nM as a bare number.

Some solved entries appear below for comparison.
The reported apparent KD of K4 kissing-loop reporter of the sequence UGUGUUUACCUGACUCAGUGAUGUUGAGAAGGAGCGUGCUAAGGCACAGGUAGGUCGCUCAACCUAAAUUCAGGUGAGCACUAAA was 274

The reported apparent KD of K4 kissing-loop reporter of the sequence GCGAAGAGAGAAGGAUAUUAGUAAUGCGUCAUGCGCCCUUACCAGUUAGUGAUGUUAACAAUACAUUAAGAAGGUCUCGGAAUCC [theeternabot_sameState_KL_FMN_B_50] was 215

Next, consider the following sequence.
The reported apparent KD of K4 kissing-loop reporter of the sequence AGUGAUGUUGUGUUAUCUUAGUGAAGUGAUCGAGGACCGGUACGGCCGCCACUCGAGUGAUGAGUGAGUGAUGUUUGUUUAGGGA [vvbmullin] was 931

----------
test system: MS2 coat protein; experiment: apparent KD of MS2 coat protein; designed switch direction (-1 OFF switch, 1 ON switch): 1; higher = weaker reporter binding; details: input ligand: FMN 200 uM
measure: apparent KD of MS2 coat protein (nM)
Write the value in nM as a bare number.

Some solved entries appear below for comparison.
The reported apparent KD of MS2 coat protein of the sequence ACAUGAAAUACAGGAUAUUUUGUACCUACAUGUGACAUGAGGAUCACCCAUGUGGUAAGUAUAAGAGAGAAGGGUAAGAUAUGU [Equivalence 4 - Jieux - Same State NG 2] (Eterna round: R96, puzzle: Same State NG 2) was 50.1

The reported apparent KD of MS2 coat protein of the sequence UUGUUUUGAAAUUAACAUGAGGAUCACCCAUGUCUUGACACAGAGGAUAUACAUGUUUGUUUGUAGUAGAAGGCUGUUUAUUGU [JR_SSNG3_Sub097] (Eterna round: R96, puzzle: Same State NG 3) was 57

The reported apparent KD of MS2 coat protein of the sequence GCUCCGCAAUACUUUCACAUGAGGAUCACCCAUGUUCACGUUAAGGAUAUCUAUUGUGAGACAGUAGAGAAGGUAGCGAGCGAC [Eternabot solution 11] (Eterna round: R96, puzzle: Same State NG 3) was 25.7

Next:
The reported apparent KD of MS2 coat protein of the sequence UCUGCAAGAACAGGAUAUGGGUUCAGAGCGGGAGUGCGCUUUGAUACAUGAGGAUCACCCAUGUCCCAGAAGGGUUCAAGCGGC [Maedraedbi] (Eterna round: R96, puzzle: Same State NG 2) was 32.9

----------
tested on: MS2 coat protein; test: apparent KD of MS2 coat protein; higher = weaker reporter binding; details: Eterna round: R107; input ligand: theophylline 2 mM
measure: apparent KD of MS2 coat protein (nM)
Write the value in nM as a bare number.

Some solved entries appear below for comparison.
# apparent KD of MS2 coat protein measured on MS2 coat protein for item UUACAUGAGGAUCACCCAUGUUUACUAUGUCGAGGACCGGUACGGCCGCCACUCGUAUUUGAUGAUUUAGGUGCCACAAGUUAUU [JR_Nu_ExcTryptoA_Sub024] = 22.6

# apparent KD of MS2 coat protein measured on MS2 coat protein for item CGAGCUGACGGAAGGAGCGAAGCCUACUCGGUGUUCCCACAUGAGGAUCACCCAUGUGGGCUUCAGGUAGGUCGCCGAACAGUCG [Vecequlala] = 86.9

# apparent KD of MS2 coat protein measured on MS2 coat protein for item GCUACAUGAGGAUCACCCAUGUAUGCGAGCCGAGGACCGGUACGGCCGCCACUCGCUUAACAUGAGGAUCACCCAUGUUGCUCGC [SSTA DOUBLE!!! :-D #18] = 28.1

# apparent KD of MS2 coat protein measured on MS2 coat protein for item AGGACAUCGGGAAGGAGCGCAUCCAAACCACACAUGAGGAUCACCCAUGUAUAAAUAUGCAUGCAGGUAGGUCGCCCGGUGUCUC [Veaza] = 137

# apparent KD of MS2 coat protein measured on MS2 coat protein for item GAUCAAAGAUCACAUGAGGAUCACCCAUGUCGAGGACCGGUACGGCCGCCACUCGCGGCGGUGAAAAUAGAUACAAAGUAUCUAU [Ex_TrypA - ViennaApproves] = 86.1

# apparent KD of MS2 coat protein measured on MS2 coat protein for item GCAUCCUAGUCGGCCGCCACUGCAUGUAGAUACCUGCUACAUGAACAUGAGGAUCACCCAUGUAGCAGGACCGGGACUAGGAUGC [(Trp1)-(MT)''-(MT)'-(Ms2)-(Trp2)_Design1] = 69.4

Next:
# apparent KD of MS2 coat protein measured on MS2 coat protein for item AAAUAUAACUCGGCCGCCACUGACAUGAGGAUCACCCAUGUUAUAUUUUAUACAUGAGGAUCACCCAGGACCGGGAGAAUAUAAA [Jonah 1] = 696

# apparent KD of MS2 coat protein measured on MS2 coat protein for item GUGACUUACGGGCGCCAUUUGUGAUAGGAAGGAGCGGCGAAAUAGCCAGGUAGGUCGCCUAUACAUGAGGAUCACCCAUGUCACC [Veveatonus] = 84.6

# apparent KD of MS2 coat protein measured on MS2 coat protein for item ACACAAUACAUGAGGAUCACCCAUGUAUAACGAGGACCGGUACGGCCGCCACUCGAAUACUGUAAUCCUCGGAAUAUUAUGUGAA [JR_ExcTryptA_Sub003] = 60.5

# apparent KD of MS2 coat protein measured on MS2 coat protein for item AAGAUACUCUGAAGGAGCGUCAUAAAACAUGAGGAUCACCCAUGUGCGCGGGUGUAAUUAUGACAGGUAGGUCGCAGAGUAUUUA [Arg B SS t2] = 601

# apparent KD of MS2 coat protein measured on MS2 coat protein for item ACCUGUACGAAAAGUGCAGGACAUGGAAAUCGAGGACCGGUACGGCCGCCACUCGUAUAAAACAAGUGGAUCACCCUUGUCCAUG [TrypAS 2 #AlternativeMS2 #Zipper #StaticStem] = 1500

# apparent KD of MS2 coat protein measured on MS2 coat protein for item CUAAUUAUAUCGGCCGCCACUUACUCAUGAGGUAACAACAUGAGGAUCACCCAUGUUUGAGGAUCAAGGACCGGGAUAUAAUUAG [AstrosSSTry#24] = 34.9

----------
The following sequences are shown together with reported apparent KD of K4 kissing-loop reporter values.
system: K4 kissing-loop RNA reporter; test: apparent KD of K4 kissing-loop reporter; higher = weaker reporter binding; conditions: Eterna round: R107; input ligand: none;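 further: bound reporter read as fluorescence of individual clusters on recovered sequencing chips by microscopy, with normalized cluster intensities fitted with a binding model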
Write the value in nM as a bare number.

Some solved entries appear below for comparison.
The reported apparent KD of K4 kissing-loop reporter of the sequence GACCUAAGCUAUGAUACCAGUCUGGCACGAAGAAGUGAUGUUUCCCAGCGUUUGUCACUUGACCCUUGGCAGCAUGCGAUCAGCU [theeternabot_sameState_KL_Theo_B_29] was 151

The reported apparent KD of K4 kissing-loop reporter of the sequence AAUAAUCUAGGUGAUACCAGCUCAACAUGAGUGAUGUUCAUGAAAUAAUGUAGAGUUGAGAGCCCUUGGCAGCACCUAGAUAAUA [KL-SSTheoB5] was 239

The reported apparent KD of K4 kissing-loop reporter of the sequence CAUACCCAGUGAUGUUGGGUCGGUACCGAUACCAGUCGUACAGCCGACCCUUGGCAGCGGUAGCAUUGCCCGGCGUCGGCUUGUG [theeternabot_exclusion_KL_Theo_A_17] was 625

The reported apparent KD of K4 kissing-loop reporter of the sequence UGACAUUGCUCAGAUACCAGACCUGAGGAUCACCCGGGUGCCAAAACGUACUAAAUAAAGGUCCCUUGGCAGCUGAGCAAUGUCU [TheoBX 13] was 65.5

The reported apparent KD of K4 kissing-loop reporter of the sequence UACUAUAGUGAUGUUAUAGAUAAACCAGAUACCAGUGUAACAUAACACCCUUGGCAGCUGAUAAGGGAAAGUAUAAAUGUGUAUU [AstrosSSTHe-A#3newdesignED] was 228

Next:
The reported apparent KD of K4 kissing-loop reporter of the sequence UGUGUUGUUUUGAUGUUUGUUGUAAAAUGGCAGGAUAUCGUAGAGGCGAGAAGGGCUUUUAUGCGUUAUGAGUGAUGUUUGUAGG [zvvczmullin] was 352

The reported apparent KD of K4 kissing-loop reporter of the sequence AAAACUAUCAGAAGGAGCGUGGAAUAUACAUCUAUAUUUAAUACGAGUGAUGUUCGUAAUUCACAGGUAGGUCGCUGAUCAAUAA [whbob_Ex_Arginine_B_2th153] was 278

The reported apparent KD of K4 kissing-loop reporter of the sequence UGACUGGACUGAAGGAGCGCGCGAGACAAAGUCUCGAACUCCUAGUGAUGUUAGGAAAUAACGCAGGUAGGUCGCAGUCUAGUCU [ArgBS 10 #SwitchBubble #StaticStem #DoubleMagnet] was 243

The reported apparent KD of K4 kissing-loop reporter of the sequence UUGAGCCUGACGAAAGUCAGGCUCUGCGAGCGAGGACCGGUACGGCCGCCACUCGGUGCAGUGAUGUUGCAUGGCCGCAAGGCCG [#2 Exclusion - Tryptophan A Attempt #14 (HarryS)] was 289

The reported apparent KD of K4 kissing-loop reporter of the sequence CGUUUAUAGCAGGAUACCAGUACCCAUAAAGUACGUUAAUAGUAGAGUGAUGUUCUAAAGUACCCUUGGCAGCUUCCCGUGAGUG [ExTheophylB.T] was 103

The reported apparent KD of K4 kissing-loop reporter of the sequence AGUACGGUGCCGUUCAGAUCAACGUAUGAUACCAGCUCGUAUAUUAGCCCUUGGCAGCAUCCGAGUGAUGUUCGGAUUGUGCCAC [theeternabot_exclusion_KL_Theo_A_45] was 102
